# test-protocol: Clearance in rat at 2 mg/kg, iv after 24 hrs
# Assay type: ADME, organism-based
# Set-up: dose 2 mg/kg, route intravenous
# condition-description: in vivo
Reported clearance values follow for various molecules
Give just the numeric value; mL/min/kg need not be written.

INSERT INTO results (molecule, reported_endpoint, recorded_number) VALUES
  ('NCC(Cc1ccccc1)NC(=O)c1cc(Br)c(-c2ccnc3[nH]ccc23)s1 (racemic)', 'clearance', 49);

For the next question, use this molecule.
Given NCC(NC(=O)c1cc(Br)c(-c2ccnc3[nH]ccc23)s1)c1ccccc1 (racemic) , state its recorded clearance.
16.7

* * *

# test-protocol: Half life in rat at 2 mg/kg, iv after 24 hrs
# Assay type: ADME, organism-based
# Set-up: dose 2 mg/kg, route intravenous
# condition-description: in vivo
reported-endpoint: half-life (h)
Give just the numeric value; h need not be written.

INSERT INTO assay_data (molecule, recorded_number) VALUES
  ('NCC(NC(=O)c1cc(Br)c(-c2ccnc3[nH]ccc23)s1)c1ccccc1 (racemic)', 3.6);

For the next question, use this molecule.
Given NCC(Cc1ccccc1)NC(=O)c1cc(Br)c(-c2ccnc3[nH]ccc23)s1 (racemic) , state its recorded half-life.
3.8
